Can you tell me Maximum (MFI) for the items I'm about to list?
testSystem: T1, human Trop2 on cells (human, UniProt P09758 27-323)
T1 construct: whole, on cells; also called hTrop2; 293T-human Trop2 cells
T1 sequence (looked up): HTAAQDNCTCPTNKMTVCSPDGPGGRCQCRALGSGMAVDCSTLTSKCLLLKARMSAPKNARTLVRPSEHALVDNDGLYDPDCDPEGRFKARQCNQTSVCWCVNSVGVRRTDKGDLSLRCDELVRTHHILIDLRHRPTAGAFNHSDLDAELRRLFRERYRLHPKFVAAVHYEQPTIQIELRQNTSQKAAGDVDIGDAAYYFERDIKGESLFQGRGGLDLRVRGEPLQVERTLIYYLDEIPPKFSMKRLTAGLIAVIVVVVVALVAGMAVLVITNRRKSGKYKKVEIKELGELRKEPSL
assayMethodText: flow cytometry on 293T-human Trop2 cells
Give bare numbers, in MFI.

Solved entries:
PR001143 (antibody, human IgG1, kappa, V domains shown, fully human IgG1/kappa; also called antibody No. (10)) VH: QVQLVESGGGVVQPGRSLRVSCAASGFIFSTYGMHWVRQAPGKGLEWVAVIWYDGSNEDYVDSVKGRFTISRDNSKNTLYLQMNSLRGEDTAVYYCARGGYNSGWWAFDVWGQGTLVTVSS VL: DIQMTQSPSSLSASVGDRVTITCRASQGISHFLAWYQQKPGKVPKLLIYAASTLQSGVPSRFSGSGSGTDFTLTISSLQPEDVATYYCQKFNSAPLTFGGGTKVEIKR :: 6300
PR001156 (antibody, human IgG1, kappa, V domains shown, fully human IgG1/kappa; also called antibody No. (19)) VH: QVQLVESGGGVVQPGRSLRLSCEGSGFTFSHYGMHWVRQAPGKGLEWVAVIWYDGIKKNYVDSLKGRFTISRDNSKNTLYLQMNSLRAEDTAVYYCARDGGFGELNYYGMDVWGQGTTVTVSS VL: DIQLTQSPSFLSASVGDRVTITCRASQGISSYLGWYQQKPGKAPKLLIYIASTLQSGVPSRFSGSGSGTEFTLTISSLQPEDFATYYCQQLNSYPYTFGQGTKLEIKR :: 7270
PR001171 (antibody, human IgG1, kappa, V domains shown, fully human IgG1/kappa; also called antibody No. (30)) VH: QVQLVESGGGVVQPGRSLRLSCAASGFTFSHYGMHWVRQAPGKGLEWVAVIWYDGIKKNYVESVKGRFTISRDNSKNTLNLQMNRLRAEDTAVYYCARDGGFGESNYYGLDVWGQGTTVTVSS VL: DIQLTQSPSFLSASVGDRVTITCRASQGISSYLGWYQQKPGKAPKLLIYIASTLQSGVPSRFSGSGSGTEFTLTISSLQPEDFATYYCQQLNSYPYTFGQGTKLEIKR :: 6600
PR001165 (antibody, human IgG1, kappa, V domains shown, fully human IgG1/kappa; also called antibody No. (26)) VH: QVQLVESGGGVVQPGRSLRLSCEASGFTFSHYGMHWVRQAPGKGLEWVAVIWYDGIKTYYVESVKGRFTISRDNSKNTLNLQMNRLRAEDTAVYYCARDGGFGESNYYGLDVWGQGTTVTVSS VL: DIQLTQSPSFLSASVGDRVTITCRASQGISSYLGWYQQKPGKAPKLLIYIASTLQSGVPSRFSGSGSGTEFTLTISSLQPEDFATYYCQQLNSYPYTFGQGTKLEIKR :: 6460
PR001134 (antibody, human IgG1, kappa, V domains shown, fully human IgG1/kappa; also called antibody No. (6)) VH: QVQLVESGGGVVQPGRSLRVSCIASGFFFSSYGMHWVRQAPGKGLEWVAVIWYDGSNEDYVDSVKGRFTISRDNSKNTLYLQMNSLRGEDTAMYYCARGGYNSGWWAFDIWGQGTMVTVSS VL: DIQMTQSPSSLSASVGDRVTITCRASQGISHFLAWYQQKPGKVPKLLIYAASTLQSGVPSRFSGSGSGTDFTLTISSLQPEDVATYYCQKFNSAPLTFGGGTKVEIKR :: 6040

Take each entry in turn and give its Maximum (MFI).
1. PR001163 (antibody, human IgG1, kappa, V domains shown, fully human IgG1/kappa; also called antibody No. (24)) VH: QVQLVESGGDVVQPGRSLRLSCEASGFTFSHYGMHWVRQAPGKGLEWVAVVWYDGIKKYYVESVKGRFTISRDNSKNTLYLQMNRLRAEDTAVYYCARDGGFGELNYYGLDVWGQGTTVTVSS VL: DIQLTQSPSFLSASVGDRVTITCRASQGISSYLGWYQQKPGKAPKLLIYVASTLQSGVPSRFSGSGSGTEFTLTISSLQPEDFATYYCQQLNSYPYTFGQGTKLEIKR
2. PR001162 (antibody, human IgG1, kappa, V domains shown, fully human IgG1/kappa; also called antibody No. (23)) VH: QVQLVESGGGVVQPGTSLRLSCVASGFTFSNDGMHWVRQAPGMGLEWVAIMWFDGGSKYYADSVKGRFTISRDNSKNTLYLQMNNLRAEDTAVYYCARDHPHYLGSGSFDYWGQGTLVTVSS VL: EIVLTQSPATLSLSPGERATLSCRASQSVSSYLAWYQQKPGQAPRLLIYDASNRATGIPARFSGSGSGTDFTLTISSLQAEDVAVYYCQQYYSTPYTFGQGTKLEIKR
3. PR001151 (antibody, human IgG1, kappa, V domains shown, fully human IgG1/kappa; also called antibody No. (14)) VH: QVQLVESGGGVVQPGRSLRLSCAASGFTFSHYGMHWVRQAPGKGLEWVAVIWYDGIKKDYVESVKGRFTISRDNSKNTLYLQMNRLRAEDTAVYYCARDGGFGELNYYGLDVWGQGTTVTVSS VL: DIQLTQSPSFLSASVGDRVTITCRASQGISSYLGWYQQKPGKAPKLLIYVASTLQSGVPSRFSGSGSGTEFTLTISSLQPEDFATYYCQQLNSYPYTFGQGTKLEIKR
4. PR001153 (antibody, human IgG1, kappa, V domains shown, fully human IgG1/kappa; also called antibody No. (16)) VH: QVQLQESGPGLVKPSGTLSLTCAVSGGSISSSNWWSWVRQPPGKGLEWIGEIYHDGSTDYNPSLKSRVIISVDKSKNQFSLKVRSVTAADTAVYYCARDNWGFDYWGQGTLVTVSS VL: EIVLTQFPGTLSLSPGERATLSCRSSQSVSSSYLAWYQQKPGQAPRLLISGASSRATGIPDRFSGSGSGTDFTLTISRLEPEDFAVYYCQQYGSSPRTFGQGTKVEIKR
5. PR001132 (antibody, human IgG1, kappa, V domains shown, fully human IgG1/kappa; also called antibody No. (4)) VH: QVELVESGGGVVQPGRSLRLSCGASGFTFSSYNMYWVRQAPGKGLEWVAGIWDDGNNKYYANSVKGRFTISRDNSKNTLYLQMNSLRTEDTALYYCAKDGWGSYGEYFQHWGQGTLVTVSS VL: DIQMTQSPSSLSASVGERVTITCRASQNINSYLSWYQQKPGKAPKLLIYAASSLQNGVPSRFSGSGSGTDFTLTISSLQPEDFATYYCQQSFSTPPITFGQGTRLEIKR

1: 5990; 2: 5850; 3: 7510; 4: 6940; 5: 6920

Source: patent US20240067748A1
